# System: Nucleic Acid
# assay.summary: The compound was tested for its binding affinity to T4 ethidium displacement assay
# Type: nucleic-acid assay
Recorded C50, one value per entry.
Quick note: give the figure in µM, leave out the unit.

CN(C)CCCNC(=O)Nc1cccc(NC(=O)c2ccc(C(=O)NCCCN(C)C)cc2)c1 | 28.6
CN(C)CCCNC(=O)c1ccc(C(=O)Nc2cccc(NC(=O)CCCN(C)C)c2)cc1 | 27.1
CN(C)CCCNC(=O)c1cccc(C(=O)Nc2ccc(NC(=O)CCCN(C)C)cc2)c1 | 35.6

input: C50 lookup needed for CN(C)CCCNC(=O)Nc1ccc(NC(=O)c2ccc(C(=O)NCCCN(C)C)cc2)cc1 , thanks.
output: 35.2

---

# System: Nucleic Acid
# assay.summary: The compound was tested for its binding affinity to Poly (dA-dT) by using ethidium displacement assay
# Format: nucleic-acid assay
Lab note - cut at 2 µM for C50: 1 if strictly below, 0 if not.

Before answering, review these 2 worked examples.
CN(C)CCCNC(=O)Nc1ccc(NC(=O)c2ccc(C(=O)NCCCN(C)C)cc2)cc1 | 0
CN1CCN(c2ccc3[nH]c(-c4ccc5[nH]c(-c6ccc(O)cc6)nc5c4)nc3c2)CC1 | 1

input: Problem: For the molecule N=C(N)c1ccc(/N=N/Nc2ccc(C(=N)N)cc2)cc1 , is C50 under 2 µM?
output: 1

input: In the record for CN(C)CCCNC(=O)Nc1cccc(NC(=O)c2ccc(C(=O)NCCCN(C)C)cc2)c1 , is C50 less than 2 µM?
output: 0

input: Please determine if C[n+]1ccc(Nc2ccc(NC(=O)c3ccc(Nc4cc[n+](C)c5ccccc45)cc3)cc2)cc1 is below 2 µM in terms of C50.
output: 1

input: # check: C50 < 2 µM for CN(C)CCCNC(=O)c1ccc(C(=O)Nc2cccc(NC(=O)CCCN(C)C)c2)cc1
output: 1

input: Please determine if CN(C)CCCNC(=O)c1cccc(C(=O)Nc2ccc(NC(=O)CCCN(C)C)cc2)c1 is below 2 µM in terms of C50.
output: 0

---

# Test system: Nucleic Acid
# assay.summary: The compound was tested for its binding affinity to calf thymus DNA by using ethidium displacement assay
# Type: nucleic-acid assay
# reported.conditions: Bos taurus
readout.label: C50 (µM)
Write down the numeric answer in µM and omit the unit.

Below, 3 molecules whose answers are already recorded.
CN(C)CCCNC(=O)c1ccc(C(=O)Nc2cccc(NC(=O)CCCN(C)C)c2)cc1 | 31.9
CN(C)CCCNC(=O)c1cccc(C(=O)Nc2ccc(NC(=O)CCCN(C)C)cc2)c1 | 47.3
CN(C)CCCNC(=O)Nc1ccc(NC(=O)c2ccc(C(=O)NCCCN(C)C)cc2)cc1 | 44.8

Turning now to a further record.
input: Name the reported C50 value associated with the molecule CN(C)CCCNC(=O)Nc1cccc(NC(=O)c2ccc(C(=O)NCCCN(C)C)cc2)c1
output: 43.5
